Study system: Yarrowia lipolytica F1Fo-ATP synthase (YF1Fo), monomeric (Yarrowia lipolytica, UniProt Q6C326+Q6C338+Q6CFT7)
Construct: complete, genetically unmodified native F1Fo holoenzyme, monomeric form, solubilised in DDM from Y. lipolytica mitochondria; PEG precipitation, glycerol gradient, anion exchange; remaining Fo and peripheral stalk subunits also present; with ATP synthase subunit delta, mitochondrial; ATP synthase subunit epsilon, mitochondrial; ATP synthase subunit 9, mitochondrial (subunit c); ATP synthase subunit a
Sequence (Q6C326 25-536): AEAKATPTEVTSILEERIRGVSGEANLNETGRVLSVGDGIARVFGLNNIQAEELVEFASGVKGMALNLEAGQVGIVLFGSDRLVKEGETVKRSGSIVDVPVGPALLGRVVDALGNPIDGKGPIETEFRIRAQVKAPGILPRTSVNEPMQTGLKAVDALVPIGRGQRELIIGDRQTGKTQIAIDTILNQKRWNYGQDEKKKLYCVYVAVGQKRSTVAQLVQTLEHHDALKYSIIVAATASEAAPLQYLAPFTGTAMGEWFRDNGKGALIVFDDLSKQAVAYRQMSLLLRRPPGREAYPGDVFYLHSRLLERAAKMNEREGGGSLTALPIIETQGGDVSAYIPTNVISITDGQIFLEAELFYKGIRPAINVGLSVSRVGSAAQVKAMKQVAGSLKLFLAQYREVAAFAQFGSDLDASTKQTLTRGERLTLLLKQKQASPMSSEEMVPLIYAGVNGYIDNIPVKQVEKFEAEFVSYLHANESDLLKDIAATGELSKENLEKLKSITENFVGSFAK
Sequence (Q6CFT7 33-509): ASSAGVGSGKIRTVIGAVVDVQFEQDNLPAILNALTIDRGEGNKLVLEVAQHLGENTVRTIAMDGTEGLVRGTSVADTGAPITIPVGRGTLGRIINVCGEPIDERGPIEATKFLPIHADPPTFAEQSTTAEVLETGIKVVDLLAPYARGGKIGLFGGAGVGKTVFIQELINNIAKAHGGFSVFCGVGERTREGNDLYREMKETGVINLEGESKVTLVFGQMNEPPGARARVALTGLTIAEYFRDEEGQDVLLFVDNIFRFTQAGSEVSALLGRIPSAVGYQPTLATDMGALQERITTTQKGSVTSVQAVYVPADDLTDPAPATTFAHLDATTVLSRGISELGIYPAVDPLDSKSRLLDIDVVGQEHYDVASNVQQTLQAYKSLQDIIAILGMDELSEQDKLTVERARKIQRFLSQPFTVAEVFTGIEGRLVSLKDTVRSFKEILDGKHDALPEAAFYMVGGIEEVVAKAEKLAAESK
Sequence (Q6C338 22-293): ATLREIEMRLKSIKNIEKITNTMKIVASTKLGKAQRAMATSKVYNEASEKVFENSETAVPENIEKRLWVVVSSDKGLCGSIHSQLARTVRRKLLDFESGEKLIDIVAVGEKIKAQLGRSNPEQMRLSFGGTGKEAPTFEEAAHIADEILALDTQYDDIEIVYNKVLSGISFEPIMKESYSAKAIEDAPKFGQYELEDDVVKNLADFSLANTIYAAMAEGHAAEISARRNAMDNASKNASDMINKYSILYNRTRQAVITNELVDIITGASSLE
Sequence (Q6C877 25-162 partner): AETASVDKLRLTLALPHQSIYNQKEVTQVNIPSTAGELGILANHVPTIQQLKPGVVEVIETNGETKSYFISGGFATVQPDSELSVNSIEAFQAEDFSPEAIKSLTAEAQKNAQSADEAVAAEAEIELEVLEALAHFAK
Sequence (Q37695 whole entry partner): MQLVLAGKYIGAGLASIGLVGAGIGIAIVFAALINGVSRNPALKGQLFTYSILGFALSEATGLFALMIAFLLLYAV
Test summary: malachite green ATP hydrolysis assay
Parameter measured: IC50 (µM)

| Line notation | IC50 (µM) |
| --- | --- |
| Oc1ccc(/C=C/c2cc(O)cc(O)c2)cc1 | 185 |

(1) Oc1ccc(/N=N/c2cc(O)cc(O)c2)cc1
(2) Oc1cc(O)cc(/N=N/c2ccc(O)c(O)c2)c1
Lookup: Looking at recorded values for IC50, does 1 or 2 come in lower? Reply with the label of the item you choose.
Found: 2
(2: 14 µM, 1: 140 µM)
